Assay: Plasma stability assay
Assay type: in vitro ADME
Details: both sexes, pooled human plasma, 37 °C, values represent 95% confidence intervals, read-out: Half-life (hour), plasma stability
Where a SMILES comes first, the peptide text is derived from it. Bridges are numbered along the chain shown (N, C = ends). [ ]: non-standard residue; d: D form.
parameter: half-life at 10 μM

Solved cases below.
{"columns": ["compound", "parameter", "meas-value"],
 "data": [
  ["CC[C@H](C)[C@@H]1NC(=O)[C@H](CC(C)C)NC(=O)[C@@H](Cc2ccc(O)cc2)NC(=O)CSC[C@@H](C(=O)NCC(N)=O)NC(=O)[C@@H]2CCCN2C(=O)[C@H](CC(C)C)NC(=O)[C@H](CC(N)=O)NC(=O)[C@H](CC(C)C)NC(=O)[C@H](C)NC(=O)[C@H](Cc2c[nH]c3ccccc23)NC(=O)[C@H](CCC(N)=O)NC(=O)[C@H](CCCNC(=N)N)NC(=O)[C@H](Cc2ccccc2)NC(=O)[C@H]([C@@H](C)O)NC1=O [cpGD20] ({CH2CO}-[dY]LITFRQWALNLPCG-NH2; thioether N-14)", "half-life at 10 μM", "7.16 to 12.7 h"],
  ["CC[C@H](C)[C@@H]1NC(=O)[C@H](C)NC(=O)[C@H](Cc2ccc(O)cc2)NC(=O)[C@H](C(C)C)NC(=O)[C@H](CO)NC(=O)[C@H](CCC(=O)O)NC(=O)[C@H](Cc2ccccc2)NC(=O)[C@@H](Cc2ccc(O)cc2)NC(=O)CSC[C@@H](C(=O)NCC(N)=O)NC(=O)[C@H](CC(C)C)NC(=O)[C@H]([C@@H](C)O)NC(=O)CNC(=O)[C@H](Cc2c[nH]c3ccccc23)NC1=O [GN13] ({CH2CO}-[dY]FESVYAIWGTLCG-NH2; thioether N-13)", "half-life at 10 μM", "> 82 h"]
]}

# ---- query compound ----
Need half-life at 10 μM of CC[C@H](C)[C@@H]1NC(=O)[C@H](CC(C)C)NC(=O)[C@@H](Cc2ccc(O)cc2)NC(=O)CSC[C@@H](C(=O)NCC(N)=O)NC(=O)[C@@H]2CCCN2C(=O)[C@H](CC(C)C)NC(=O)[C@H](CC(N)=O)NC(=O)[C@H](Cc2ccccc2)NC(=O)[C@H](C)NC(=O)[C@H](Cc2c[nH]c3ccccc23)NC(=O)[C@H](CCC(N)=O)NC(=O)[C@H](CCCNC(=N)N)NC(=O)[C@H](Cc2ccccc2)NC(=O)[C@H]([C@@H](C)O)NC1=O [GD20] ({CH2CO}-[dY]LITFRQWAFNLPCG-NH2; thioether N-14) , thanks. 16.4 to 27.1 h
